Assay: in vitro
Settings: human, hepatocytes
MEASUREMENT NAME: half-life (h)
Write the answer as a number in h, unit excluded.

### Prompt Recorded half-life of FC(F)(F)Oc1ccc(Oc2ccc(CNCCNC3C4CC5CC(C4)CC3C5)cc2)cc1 (stereo not shown) , please.
### Response 3.17

----------
Test system: PBS-starved H37Rv
Type: cell-based, Mycobacterium tuberculosis

{"columns": ["CHEM SMILES", "sensitivity of non-replicating Mtb"],
 "data": [
  ["CO[C@H]1/C=C/O[C@@]2(C)Oc3c(C)c(O)c4c(O)c(c(/C=N/N5CCN(C)CC5)c(O)c4c3C2=O)NC(=O)/C(C)=C\\C=C\\[C@H](C)[C@H](O)[C@@H](C)[C@@H](O)[C@@H](C)[C@H](OC(C)=O)[C@@H]1C", "tolerant"],
  ["NNC(=O)c1ccncc1", "tolerant"],
  ["CC[C@@H](CO)NCCN[C@@H](CC)CO", "tolerant"]
]}
